systemTested: Dual specificity tyrosine-phosphorylation-regulated kinase 1A (Mus musculus)
assayProtocol: Inhibition of mouse Dyrk1A autophosphorylation in HEk293 cells at 10 uM
Assay type: cell-based
As shown below, each of these compounds has a reported inhibition value.
quantity: inhibition

1) CCOC(=O)c1cnc2ccc(C(=O)OC)cc2c1Nc1cccc(C(C)=O)c1
51%
2) COc1cc(/C=C2\C(=O)NN(c3ccc(Cl)c(Cl)c3)C2=O)ccc1O
82%
3) COc1ccc(O)c(-c2cc(-c3ccccc3Cl)[nH]n2)c1
43%
4) Brc1ccc(Nc2nc(NCc3ccco3)c3ccccc3n2)cc1
8%
5) COc1cccc(NC(=O)Nc2nnc(-c3ccncc3)s2)c1
41%
6) CCOC(=O)c1ccc2ncc(C(=O)OCC)c(Nc3ccc(C)c(Br)c3)c2c1
13%
7) COc1cc(/C=C2\C(=O)NN(c3cccc(Cl)c3)C2=O)ccc1O
74%
8) CN1C(=O)/C(=C2\SC(Nc3ccc(F)cc3)=NC2=O)c2ccccc21
12%
9) CCOC(=O)c1ccc2ncc(C(=O)OCC)c(Nc3ccc(NC(C)=O)cc3)c2c1
52%
10) Cc1cccc(Nc2nc(-c3c(C)nc4ncccn34)cs2)c1
25%

====

systemTested: Dual specificity tyrosine-phosphorylation-regulated kinase 1A (Mus musculus, UniProt Q61214)
assayProtocol: Inhibition of mouse Dyrk1A autophosphorylation in HEk293 cells
pIC50: −log10 of the molar value.
quantity: pIC50

1. Brc1ccc(Nc2nc(NCc3ccco3)c3ccccc3n2)cc1
5.30
2. C=CCOc1ccc(Br)cc1/C=C1\SC(Nc2ccc(Cl)c(C(=O)O)c2)=NC1=O
4.70
3. COc1cc(/C=C2\C(=O)NN(c3ccc(Cl)c(Cl)c3)C2=O)ccc1O
5.60
4. CCOC(=O)c1cnc2ccc(C(=O)OC)cc2c1Nc1cccc(C(C)=O)c1
4.30
5. COc1ccc(O)c(-c2cc(-c3ccccc3Cl)n[nH]2)c1
4.70
6. CCOC(=O)c1ccc2ncc(C(=O)OCC)c(Nc3ccc(NC(C)=O)cc3)c2c1
5.00
7. CN1C(=O)/C(=C2\SC(Nc3ccc(F)cc3)=NC2=O)c2ccccc21
4.30
8. COc1cccc(NC(=O)Nc2nnc(-c3ccncc3)s2)c1
5.30
9. CCOC(=O)c1ccc2ncc(C(=O)OCC)c(Nc3ccc(C)c(Br)c3)c2c1
4.30

These entries and their values trace back to ChEMBL document CHEMBL1138920.
